Target: T1, His6-EB1-CyPet (human, UniProt Q15691 1-268)
T1 sequence: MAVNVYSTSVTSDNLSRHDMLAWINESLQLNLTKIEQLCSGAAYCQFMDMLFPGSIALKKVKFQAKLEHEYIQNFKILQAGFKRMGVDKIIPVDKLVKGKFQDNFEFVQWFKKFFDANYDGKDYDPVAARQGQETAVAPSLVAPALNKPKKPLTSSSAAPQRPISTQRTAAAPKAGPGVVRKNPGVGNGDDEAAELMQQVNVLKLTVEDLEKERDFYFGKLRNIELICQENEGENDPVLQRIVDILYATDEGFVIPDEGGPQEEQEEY
Assay: FRET or BRET
Experimental Endpoint: binding result

INSERT INTO measurements (binder, experimental_value) VALUES
  ('YPet-Kif18B(708-828) E2 (domain or fragment) KSRVPLGPSAMQNCSTPLALPTRDLNATFDLSEEPPSKPSFHECIGWDKIPQELSRLDQPFIPRAPVPLFTMKGPKPTSSNNGTSACKKKRVASSSVSHGRSRIARLPSSTLKRPAGPLVL', 'binds'),
  ('YPet-Kif18B(605-707)-His6 (domain or fragment) TRTMARRLSGPLHTLGIPPGPNCTPAQGSRWPMEKKRRRPSALEADSPMAPKRGTKRQRQSFLPCLRRGSLPDTQPSQGPSTPKGERASSPCHSPRVCPATVI', 'binds'),
  ('YPet-Kif18B(605-828)-NLS1/2 (domain or fragment) TRTMARRLSGPLHTLGIPPGPNCTPAQGSRWPMEAAARRPSALEADSPMAPAAGTKRQRQSFLPCLRRGSLPDTQPSQGPSTPKGERASSPCHSPRVCPATVIKSRVPLGPSAMQNCSTPLALPTRDLNATFDLSEEPPSKPSFHECIGWDKIPQELSRLDQPFIPRAPVPLFTMKGPKPTSSLPGTSACAAAAVASSSVSHGRSRIARLPSSTLKRPAGPLVL', 'binds');
